conditions: 298.15 K; 101.33 kPa; Liquid; Vibrating tube method
± gives the expanded uncertainty stated by the source.
OUTCOME_MEASURE: mass density

{"COMPOUND": "CCCCCC [hexane]", "MEASURED_RESULT": "655.248 ± 0.28 kg/m3"}
{"COMPOUND": "CCCCCCCCC [nonane]", "MEASURED_RESULT": "714.064 ± 0.41 kg/m3"}
{"COMPOUND": "CN(C)C=O [dimethylformamide]", "MEASURED_RESULT": "943.875 ± 0.25 kg/m3"}
{"COMPOUND": "CCCCCCCC [octane]", "MEASURED_RESULT": "698.636 ± 0.41 kg/m3"}
{"COMPOUND": "CCCCCCC [heptane]", "MEASURED_RESULT": "679.627 ± 0.27 kg/m3"}
{"COMPOUND": "CC(=O)N(C)C [N,N-dimethylethanamide]", "MEASURED_RESULT": "936.214 ± 0.48 kg/m3"}
